target: N-terminal active peptide segment of POLQ with ATPase activity (M1-N899) (Homo sapiens, UniProt O75417)
Sequence (O75417 1-899): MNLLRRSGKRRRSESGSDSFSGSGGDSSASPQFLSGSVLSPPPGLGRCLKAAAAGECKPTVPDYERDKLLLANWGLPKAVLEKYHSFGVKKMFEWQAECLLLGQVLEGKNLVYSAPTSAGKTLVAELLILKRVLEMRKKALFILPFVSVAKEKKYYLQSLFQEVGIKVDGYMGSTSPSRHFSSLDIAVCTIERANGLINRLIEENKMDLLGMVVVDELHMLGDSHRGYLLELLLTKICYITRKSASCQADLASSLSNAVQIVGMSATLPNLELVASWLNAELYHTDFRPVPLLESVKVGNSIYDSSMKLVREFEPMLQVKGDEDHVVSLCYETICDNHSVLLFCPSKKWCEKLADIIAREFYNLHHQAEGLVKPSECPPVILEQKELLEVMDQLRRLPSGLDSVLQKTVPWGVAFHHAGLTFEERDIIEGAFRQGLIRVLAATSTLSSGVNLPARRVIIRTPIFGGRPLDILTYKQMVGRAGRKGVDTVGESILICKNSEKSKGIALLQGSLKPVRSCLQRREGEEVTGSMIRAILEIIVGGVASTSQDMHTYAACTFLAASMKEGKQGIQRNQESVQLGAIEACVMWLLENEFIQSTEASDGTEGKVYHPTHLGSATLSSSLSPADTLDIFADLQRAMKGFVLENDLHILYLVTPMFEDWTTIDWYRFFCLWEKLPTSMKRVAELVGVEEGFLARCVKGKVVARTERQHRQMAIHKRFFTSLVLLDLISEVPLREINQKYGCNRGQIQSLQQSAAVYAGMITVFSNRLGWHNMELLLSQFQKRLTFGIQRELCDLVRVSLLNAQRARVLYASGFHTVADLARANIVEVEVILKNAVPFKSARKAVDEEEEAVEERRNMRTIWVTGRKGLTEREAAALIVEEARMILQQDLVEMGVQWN
pIC50: −log10 of the molar value.
quantity-kind: pIC50

COc1ccc(Cl)cc1-c1cc(C)ncc1C(=O)Nc1nc2ncc(-c3ccc(C4CC4)cn3)nc2s1 [Compound III] has a reported pIC50 of > 7.00

COc1ccc(Cl)cc1-c1cc(C)ncc1C(=O)Nc1nc2ncc(-c3ccc(C#N)cc3)nc2s1 [Compound I] has a reported pIC50 of > 7.00

COc1cnc(C)cc1-c1cc(C)ncc1C(=O)Nc1nc2ncc(-c3ccc(C#N)cc3)nc2s1 [Compound II] has a reported pIC50 of > 7.00
